- study_target: PI3Kalpha (Homo sapiens, UniProt P42336)
- Construct: in some cases as full-length kinases, in some cases as truncated fragments; purchased Upstate 14-602
- Sequence (P42336 whole entry, the tested form may be a part): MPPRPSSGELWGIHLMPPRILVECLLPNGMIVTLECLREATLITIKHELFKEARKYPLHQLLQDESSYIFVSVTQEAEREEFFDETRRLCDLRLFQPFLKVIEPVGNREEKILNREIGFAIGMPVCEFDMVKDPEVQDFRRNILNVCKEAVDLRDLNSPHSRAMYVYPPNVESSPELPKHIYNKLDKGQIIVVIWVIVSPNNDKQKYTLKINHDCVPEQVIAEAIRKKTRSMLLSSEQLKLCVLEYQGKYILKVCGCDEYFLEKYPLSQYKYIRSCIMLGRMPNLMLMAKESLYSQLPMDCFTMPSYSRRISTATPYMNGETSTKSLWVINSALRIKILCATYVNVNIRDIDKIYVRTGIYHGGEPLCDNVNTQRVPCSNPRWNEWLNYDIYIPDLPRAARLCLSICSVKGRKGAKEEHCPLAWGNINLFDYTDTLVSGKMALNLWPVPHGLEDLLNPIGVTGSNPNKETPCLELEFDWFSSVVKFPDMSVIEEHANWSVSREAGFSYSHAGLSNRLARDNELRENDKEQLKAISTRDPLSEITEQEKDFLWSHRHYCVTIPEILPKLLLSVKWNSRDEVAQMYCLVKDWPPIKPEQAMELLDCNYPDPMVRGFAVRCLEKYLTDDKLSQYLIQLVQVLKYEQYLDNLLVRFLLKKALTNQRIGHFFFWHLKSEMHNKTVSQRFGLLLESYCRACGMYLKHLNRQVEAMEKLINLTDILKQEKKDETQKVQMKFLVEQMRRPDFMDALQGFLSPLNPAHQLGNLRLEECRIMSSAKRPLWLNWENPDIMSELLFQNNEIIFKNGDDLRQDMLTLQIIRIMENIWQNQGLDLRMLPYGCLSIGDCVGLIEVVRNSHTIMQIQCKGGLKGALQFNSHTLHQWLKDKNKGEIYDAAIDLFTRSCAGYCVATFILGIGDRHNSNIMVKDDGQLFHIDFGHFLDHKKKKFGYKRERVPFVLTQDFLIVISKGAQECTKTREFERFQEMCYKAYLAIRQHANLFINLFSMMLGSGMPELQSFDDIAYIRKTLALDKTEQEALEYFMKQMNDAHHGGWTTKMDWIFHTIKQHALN
- Sequence (P27986 whole entry partner, the tested form may be a part): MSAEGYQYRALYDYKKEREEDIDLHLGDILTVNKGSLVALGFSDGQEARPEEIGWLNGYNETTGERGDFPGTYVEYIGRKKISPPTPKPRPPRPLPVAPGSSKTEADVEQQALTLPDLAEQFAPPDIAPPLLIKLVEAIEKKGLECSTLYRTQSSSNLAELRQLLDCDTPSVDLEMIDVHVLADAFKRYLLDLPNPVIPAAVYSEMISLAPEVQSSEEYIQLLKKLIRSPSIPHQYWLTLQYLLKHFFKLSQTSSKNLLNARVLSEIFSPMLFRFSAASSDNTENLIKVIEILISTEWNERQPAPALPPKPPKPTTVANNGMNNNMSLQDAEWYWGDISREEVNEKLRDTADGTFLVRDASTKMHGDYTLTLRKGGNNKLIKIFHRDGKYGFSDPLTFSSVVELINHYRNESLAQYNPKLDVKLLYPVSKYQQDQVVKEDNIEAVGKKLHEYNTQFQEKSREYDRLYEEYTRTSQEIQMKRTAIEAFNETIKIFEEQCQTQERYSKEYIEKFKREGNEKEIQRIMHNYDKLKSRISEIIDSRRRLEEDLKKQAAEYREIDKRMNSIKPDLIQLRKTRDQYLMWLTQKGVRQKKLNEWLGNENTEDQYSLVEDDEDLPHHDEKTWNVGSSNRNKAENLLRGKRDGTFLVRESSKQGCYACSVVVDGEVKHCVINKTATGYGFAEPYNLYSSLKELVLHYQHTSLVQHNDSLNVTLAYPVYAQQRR
- protocol_text: Cell-free kinase assay (ALPHA technology), PI3K-ALPHA
- Format: biochemical
- test_conditions: 100 μM ATP, recombinant human kinase

- sample_smiles: "CCNC(=O)Nc1ccc2ncc(-c3ccc(NC(=O)COCCOC)cc3)nc2n1"
  IC50 [nM]: 749
- sample_smiles: "CCNC(=O)Nc1ccc2ncc(/C=C/COC)nc2n1"
  IC50 [nM]: 21300
- sample_smiles: "CCNC(=O)Nc1ccc2ncc(-c3ccc(OC(=O)OCCOC)cc3)nc2n1"
  IC50 [nM]: 1300
- sample_smiles: "CCNC(=O)Nc1ccc2ncc(-c3ccc(NC(=O)OC(C)(C)C)cc3)nc2n1"
  IC50 [nM]: 1200
- sample_smiles: "CCNC(=O)Nc1ccc2ncc(Nc3ccc(CN4CCCCC4)cc3)nc2n1"
  IC50 [nM]: 7500
- sample_smiles: "CCNC(=O)Nc1ccc2ncc(-c3ccc(OC(=O)N(C)C)cc3)nc2n1"
  IC50 [nM]: 2300
- sample_smiles: "CCNC(=O)Nc1ccc2ncc(-c3ccc(CN4CCOCC4)cc3)nc2n1"
  IC50 [nM]: 1800
- sample_smiles: "CCNC(=O)Nc1ccc2ncc(Nc3ccc(NC(C)=O)cc3)nc2n1"
  IC50 [nM]: 677
- sample_smiles: "CCNC(=O)Nc1ccc2ncc(-c3ccc(NC(=O)OCCOC)cc3)nc2n1"
  IC50 [nM]: 1200
